Each recorded value in this set is attributed to patent US20080003288A1.

# assay-protocol: Transepithelial transport of doxorubicin across Caco-2 monolayers
# Format: in vitro ADME
# cond: human, Caco-2, doxorubicin 3 μM in donor, no further additive in DMEM; read-out: apparent permeability, b→a, fluorescence assay
measure: Papp B→A at 3 µM (×10⁻⁶ cm/s)
Just the number in ×10⁻⁶ cm/s, nothing appended.

Req: Look up Papp B→A at 3 µM: COc1cccc2c1C(=O)c1c(O)c3c(c(O)c1C2=O)C[C@@](O)(C(=O)CO)C[C@@H]3O[C@H]1C[C@H](N)[C@H](O)[C@H](C)O1
Resp: 2.81

###

# assay-protocol: Transepithelial transport of doxorubicin across Caco-2 monolayers
# Type: in vitro ADME
# cond: human, Caco-2, doxorubicin 3 μM in donor, no further additive in DMEM; read-out: apparent permeability, b→a, HPLC assay
measure: Papp B→A at 3 µM (×10⁻⁶ cm/s)
Just the number in ×10⁻⁶ cm/s, nothing appended.

Req: Look up Papp B→A at 3 µM: COc1cccc2c1C(=O)c1c(O)c3c(c(O)c1C2=O)C[C@@](O)(C(=O)CO)C[C@@H]3O[C@H]1C[C@H](N)[C@H](O)[C@H](C)O1 [Doxorubicin]
Resp: 2.75
